Taken from PubChem BioAssay AID248.

Listed molecules paired with reported T/C
System: L1210 leukemia ip in BDF1 mice, survival T/C
protocol: NCI In Vivo Anticancer Drug Screen. Data for tumor model L1210 Leukemia (intraperitoneal) in B6D2F1 (BDF1) mice
cond: endpoint: mean survival time; dose: 100.0 mg/kg/injection; schedule: Q01DX009 (ip); vehicle: saline with Tween-80; higher = longer survival
Toxic doses and inconclusive results are not listed.

1) Cc1ccc(/C(=C/c2ccc([N+](=O)[O-])cc2)C(=O)Nc2ccc(S(=O)(=O)F)cc2)cc1
94 % of control
2) Cc1ccc(C)c(NC(=O)Nc2cc(C)on2)c1
86 % of control
3) S=C(Nc1ccccc1)c1ccccn1
102 % of control
4) CC1(C)SC(C(NC(=O)COc2ccccc2)C(=O)O)NC1C(=O)O (stereo unspecified)
95 % of control
5) Cc1cc(N2C(=O)CSC2=S)ccc1Br
104 % of control
6) CC(=O)C(C)(CCC#N)CCC#N
91 % of control
7) CC12CCCC(O)C1(O)CC(C(=O)O)CC2 (stereo unspecified)
96 % of control
8) CC(C)(C)C(Br)CBr (stereo unspecified)
101 % of control
9) CC1CCCNC1C (stereo unspecified)
102 % of control
10) CC(C)(C)OC(=O)NCCCCC(NC(=O)OCc1ccccc1)C(=O)O (stereo unspecified)
89 % of control

Now turn to the next molecule.
Asked: Give the measured T/C of S=c1nc(COc2ccccc2Cl)[nH][nH]1 .
Given back: 100 % of control
